The reported measurements were obtained from ChEMBL document CHEMBL4400511.

- System: MSTO-211H
- protocol-summary: Growth inhibition in human MSTO-211H cells after 72 hrs by trypan blue dye-based assay
- Assay type: functional
Exam item: assign Criterion met to entries whose GI50 is below 2 µM and Criterion not met to entries at or above 2 µM. Note that a value of exactly 2 µM receives Criterion not met.

Q: Please determine if COc1ccc2c(=O)c3c(sc2c1)c1cc(OC)c(OC)cc1n3CCN(C)C is below 2 µM in terms of GI50.
A: Criterion met

Q: Does CCN(CC)CCn1c2cc(OC)c(OC)cc2c2sc3ccccc3c(=O)c21 have GI50 strictly under 2 µM?
A: Criterion met

Q: Does this compound meet the criterion GI50 < 2 µM? CCN(CC)CCn1c2ccc(OC)cc2c2sc3cc(Cl)ccc3c(=O)c21
A: Criterion not met

Q: For this compound, is GI50 lower than 2 µM? COc1ccc2c(c1)c1sc3ccccc3c(=O)c1n2CCN(C)C
A: Criterion not met

Q: Item COc1cc2c3sc4cc(Cl)ccc4c(=O)c3n(CCN(C)C)c2cc1OC : GI50 beneath 2 µM, strictly?
A: Criterion met
